assay: HepG2 cytotoxicity, primary screen, cytotoxicity control for P. falciparum antimalarial project, cell-based, ATP luminescence (AID 2303); conditions: HepG2 viability, 24-48 h, at 10 µM
Active and inactive are the calls of the source.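 How the source made its calls: active means inhibition above 50%; inactive means the rest.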
Classes used: active, inactive

# COMPOUND, GROUP
measured = [
    ("COc1ccc(CNC(=O)Nc2cc3cc(-c4ccc(CN(C)C)cc4)ccc3n3c(C)nnc23)cc1", "active"),
    ("Cc1ccc2sc(N(CCCn3ccnc3)C(=O)c3ccco3)nc2c1C", "inactive"),
    ("C(=NNc1nc2ccccc2[nH]1)c1ccccc1OCc1ccccc1", "inactive"),
    ("CO/C(=C/C=C/c1cc2cc(Cl)c(Cl)cc2[nH]1)C(=O)NC1CC(C)(C)N(C)C(C)(C)C1", "active"),
    ("COC(=O)c1ccc(NC(=O)Nc2ccc(Cn3ncc(N4CCCNCC4)c(Cl)c3=O)cc2)cc1", "inactive"),
    ("CC(C)(C)c1ccc2nc(-c3ccc(/C=C/C(=O)NC4CCN(Cc5ccccc5)CC4)cc3)[nH]c2c1", "inactive"),
    ("COc1ccc(CCNc2ccnc3cc(Cl)ccc23)cc1OC", "inactive"),
    ("Nc1nccc2ccc(-c3cccc(O)c3)cc12", "inactive"),
    ("O=C(Nc1cccc(-c2cccc(-c3nc4ccc(F)cc4[nH]3)c2)c1)c1csnn1", "inactive"),
    ("Nc1cccc(CNCc2cccc(-c3ccc(-c4nc5ccccc5[nH]4)s3)c2)c1", "inactive"),
    ("CN(C)c1ccc(-c2nc3ccc(N)cc3[nH]2)cc1", "inactive"),
    ("NC1=NC(=O)C(=Cc2cn(-c3ccccc3)nc2-c2cccc(S(=O)(=O)N3CCCC3)c2)S1", "inactive"),
    ("COc1cccc(CN2CCCC(COC(c3ccc(F)cc3)c3ccc(F)cc3)C2)c1O (stereo not drawn)", "inactive"),
    ("COC(=O)c1ccc2nc(-c3cc(-c4cccc(-c5ccccc5)c4)cnc3N)[nH]c2c1", "inactive"),
    ("O=C(/C=C/c1ccc(Cl)c(Cl)c1)NC1CCN(CCNC(=O)c2cccc(Cl)c2)CC1", "inactive"),
    ("COc1cc2c(cc1O)[C@@H]1[C@H](O)[C@@H](O)C=C3CCN(C2)[C@H]31", "inactive"),
    ("CC1(C)N=C(NC(=O)c2ccc([N+](=O)[O-])cc2)N=C(N)N1OCc1ccc2ccccc2c1", "active"),
    ("COc1ccc(C(=O)Nc2cc(Br)c3c(c2)CNCC3)cc1C(F)(F)F", "inactive"),
    ("O=[N+]([O-])c1ccccc1C=NNc1c2c(nc3ccccc13)CCCC2", "inactive"),
    ("COc1ccc2nccc([C@@H](O)CN3CCC(NCc4cc5c(F)ccc(F)c5[nH]4)CC3)c2n1", "inactive"),
    ("CCOC(=O)c1c(CN2CCCC2)n(-c2ccccc2)c2cc(Br)c(O)cc12", "inactive"),
    ("O=C(NC1CCC(N2CCN(c3cccc(C(F)(F)F)c3)CC2)CC1)c1cc2ccccc2[nH]1 (stereo not drawn)", "inactive"),
    ("O=C(/C=C/c1ccc(C(F)(F)F)cc1)NCCCCCN1CCN(C(=O)Nc2ccc(Cl)c(Cl)c2)CC1", "inactive"),
    ("Cc1cccc2[nH]c(-c3ccc(-c4cccc(NC(=O)C(C)CN5CCN(C)CC5)c4)s3)nc12 (stereo not drawn)", "inactive"),
    ("Cc1cccc(C(=O)Nc2ccnc(N3CCC(N(C)Cc4ccc(C#N)cc4)CC3)c2)c1", "inactive"),
    ("O=C(Nc1cccc(-c2ccc(CN3CCCC3)cc2)c1)c1cccc(Cl)c1", "inactive"),
    ("COc1nc2c(CCN3CC[C@H](NCc4cc(C#N)c5c(c4)OCCO5)[C@H](O)C3)ccnc2cc1F", "inactive"),
    ("CCCc1ccc(-c2csc(NC(=O)c3ccc([N+](=O)[O-])o3)n2)cc1", "active"),
    ("CCOC(=O)c1c(CCc2ccc(C(F)(F)F)cc2)nc2c(c1-c1ccc(C(=O)N[C@@H](C)c3ccncc3)cc1)C(=O)N1CCC[C@@H]21", "inactive"),
    ("CN1CCC(N2CCN(CCOc3cc(NC(=O)/C=C/c4ccccc4Cl)ccc3Br)CC2)CC1", "inactive"),
    ("CN1CCN(c2ccnc3ccc(NC(=O)Nc4cccc5c(C#N)cccc45)cc23)CC1", "inactive"),
    ("COc1ccc(NC(=O)[C@H](CC(C)C)Nc2cc(C)nc(NCc3ccccc3C)n2)cc1", "inactive"),
    ("CC(C)c1cc(Oc2c(I)cc(CCN=C(N)N)cc2I)ccc1O", "inactive"),
    ("COc1cccc(CN2CCCN(Cc3cccc(NC(=O)c4ccc(-c5ccccc5)cc4)c3)CC2)c1", "inactive"),
    ("Cc1cc(CN2CC[C@H](NC(=O)c3ccc(Cl)c(Cl)c3)C2)ccc1OC1CCN(Cc2ccccc2)CC1", "active"),
    ("COc1ccc(-c2onc(C(F)(F)F)c2-c2ccc(Br)cc2)c(O)c1", "inactive"),
    ("CN(C)Cc1ccc(-c2cc3c(-c4ccc(CN(C)C)cc4)ccnc3[nH]2)cc1", "active"),
    ("O=C(CC1NC(=O)c2ccccc21)Nc1ccc(-c2ccc(-c3nc4ccc(C(F)(F)F)cc4[nH]3)cc2)cc1 (stereo not drawn)", "inactive"),
]
